procedure text: in vitro
setup conditions: human, hela cells, % viability
readout kind: viability at 28.5 h, 10 µM (%)
Give the value, in units of %, as a plain number.

>  <compound>
CN1CCC(N2CCN(C(=O)c3ccc(-c4ccc(OC(F)(F)F)cc4)nc3)CC2)CC1 [CBK156206]

>  <unit descriptor>
%

>  <viability at 28.5 h, 10 µM>
92.8

$$$$
>  <compound>
COc1cccc(CNn2cnnc2S)c1OCc1ccccc1 [CBK265781]

>  <unit descriptor>
%

>  <viability at 28.5 h, 10 µM>
96.3

$$$$
>  <compound>
CCC(C)NC(=O)c1ccccc1NS(=O)(=O)c1cc(C(=O)O)cs1 (centres unmarked) [CBK295652]

>  <unit descriptor>
%

>  <viability at 28.5 h, 10 µM>
108

$$$$
>  <compound>
O=C(Nc1cccc(C(F)(F)F)c1)c1ccc(N2CCNCC2)c([N+](=O)[O-])c1 [CBK266274]

>  <unit descriptor>
%

>  <viability at 28.5 h, 10 µM>
100

$$$$
>  <compound>
COc1ccc(S(=O)(=O)N2CCCCC2C(=O)O)cc1 (centres unmarked) [CBK077424]

>  <unit descriptor>
%

>  <viability at 28.5 h, 10 µM>
99.5

$$$$
>  <compound>
COc1cc(/C=N/NC(=O)CCc2c(C)n[nH]c2C)ccc1O [CBK262925]

>  <unit descriptor>
%

>  <viability at 28.5 h, 10 µM>
90.1

$$$$
>  <compound>
COc1ccc(OCC(=O)NNC(=O)c2cnccn2)cc1 [CBK262619]

>  <unit descriptor>
%

>  <viability at 28.5 h, 10 µM>
98.1

$$$$
>  <compound>
O=C(O)CCC(C(=O)O)N1C(=O)c2c(Cl)c(Cl)c(Cl)c(Cl)c2C1=O (centres unmarked) [CBK264308]

>  <unit descriptor>
%

>  <viability at 28.5 h, 10 µM>
102

$$$$
>  <compound>
CCc1nccnc1OC [CBK089673]

>  <unit descriptor>
%

>  <viability at 28.5 h, 10 µM>
101

$$$$
>  <compound>
Cn1ccnc1Sc1cc(C(F)(F)F)ccn1 [CBK093798]

>  <unit descriptor>
%

>  <viability at 28.5 h, 10 µM>
80.5

$$$$

Given CC(=O)C(C)Oc1ccccc1-n1cccc1 (centres unmarked) [CBK020334] , state its recorded viability at 28.5 h, 10 µM.
95.9

Given O=c1ccc2cccc(OCCO)c2o1 [CBK149730] , state its recorded viability at 28.5 h, 10 µM.
105

Given CC(C)c1c(O)c2ccccc2[nH]c1=O [CBK159988] , state its recorded viability at 28.5 h, 10 µM.
89.4

###

procedure text: in vitro
setup conditions: human, hela cells, % viability
readout kind: viability at 28.5 h, 10 µM (%)
Give the value, in units of %, as a plain number.

Given "COc1ncc(-c2ccc(N3CCN(c4ccncc4)CC3)nc2)c(OC)n1" , state its recorded viability at 28.5 h, 10 µM.
99.1

Given CC(=O)c1ccc(NC(=O)C2C3C=CC(C3=C(c3ccccc3)c3ccccc3)C2C(=O)O)cc1 (stereo not drawn) , state its recorded viability at 28.5 h, 10 µM.
98.4

###

Readings of viability at 28.5 h, 10 µM for the listed molecules
procedure text: in vitro
setup conditions: human, hela cells, % viability
Give the value, in units of %, as a plain number.

>  <molecule>
CCn1cc(C(=O)O)c(=O)c2cnc(N3CCN(C(=S)Nc4ccc5c(c4)OCO5)CC3)nc21 [CBK267930]

>  <viability at 28.5 h, 10 µM, %>
90.6

$$$$
>  <molecule>
NS(=O)(=O)c1ccc(NC(=O)CN2C(=O)S/C(=C\C=C\c3ccccc3)C2=O)cc1 [CBK264835]

>  <viability at 28.5 h, 10 µM, %>
94.6

$$$$

Given c1ccn(CCOc2nccnc2-c2ccsc2)c1 [CBK106772] , state its recorded viability at 28.5 h, 10 µM.
94.4

Given O=C(CNC(=O)C1CCCCC1)NNC(=O)c1sc2ccccc2c1Cl [CBK267903] , state its recorded viability at 28.5 h, 10 µM.
98.8
